- measurement.target: farnesyl protein transferase (FPT), partially purified from rat brain (Rattus norvegicus, UniProt Q02293+Q04631)
- Construct: were partially purified from rat brain by ammonium sulfate fractionation followed by Q-Sepharose
- Sequence (Q02293 whole entry, one chain of several): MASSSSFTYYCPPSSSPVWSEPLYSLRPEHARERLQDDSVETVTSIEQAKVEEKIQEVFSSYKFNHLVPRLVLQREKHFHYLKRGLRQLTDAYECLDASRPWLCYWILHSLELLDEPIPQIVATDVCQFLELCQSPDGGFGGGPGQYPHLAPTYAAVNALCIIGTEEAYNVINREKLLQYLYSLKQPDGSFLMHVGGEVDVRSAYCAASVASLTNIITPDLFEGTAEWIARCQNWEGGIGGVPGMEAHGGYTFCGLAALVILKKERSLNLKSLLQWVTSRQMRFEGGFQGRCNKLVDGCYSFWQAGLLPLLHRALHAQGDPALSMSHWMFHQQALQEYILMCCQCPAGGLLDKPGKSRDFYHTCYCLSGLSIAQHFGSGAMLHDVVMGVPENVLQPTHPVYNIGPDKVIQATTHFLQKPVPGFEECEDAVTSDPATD
- assay.method.text: Inhibition of farnesyl protein transferase (transfer of [3H]farnesyl to Ras-CVLS)
- Assay type: biochemical
- study.conditions: Ras-CVLS farnesylation, partially purified rat brain FPT; read-out: FPT IC50
readout: pIC50
Expect pIC50 as a plain number equal to -log10 of the molar concentration.

Problem: Which pIC50 is listed for COC(=O)c1ccc(C(=O)N2CCC(=C3c4ccc(Cl)cc4CCc4cccnc43)CC2)cc1 ?
Result: 5.35

Problem: Query O=C(c1cc([N+](=O)[O-])c(O)c([N+](=O)[O-])c1)N1CCC(=C2c3ccc(Cl)cc3CCc3cccnc32)CC1 next
Result: 5.08

Problem: Query COCC(=O)N1CCC(=C2c3ccc(Cl)cc3CCc3cccnc32)CC1 next
Result: 4.84

Problem: Query O=C(CN1CCS(=O)(=O)CC1)N1CCC(=C2c3ccc(Cl)cc3CCc3cc(Br)cnc32)CC1 next
Result: 6.68

Problem: Query C#CC(=O)N1CCC(=C2c3ccc(Cl)cc3CCc3cccnc32)CC1 next
Result: 5.40

---

- measurement.target: farnesyl protein transferase (FPT), partially purified from rat brain (Rattus norvegicus, UniProt Q02293+Q04631)
- Construct: were partially purified from rat brain by ammonium sulfate fractionation followed by Q-Sepharose
- assay.method.text: Inhibition of farnesyl protein transferase (transfer of [3H]farnesyl to Ras-CVLS)
- Type: biochemical
- study.conditions: enzyme inhibition; read-out: FPT IC50
pIC50: −log10 of the molar value.
readout: pIC50

Problem: Which pIC50 is listed for O=C(Nc1ccncc1)N1CCC(=C2c3ccc(Cl)cc3CCc3cc(Cl)ccc32)CC1 ?
Result: < 5.37

Problem: Query CC(C)(C(=O)N1CCC(=C2c3ccc(Cl)cc3CCc3cc(F)cnc32)CC1)c1cc[n+]([O-])cc1 next
Result: ~5.30

Problem: Query O=C(Cc1ccc[n+]([O-])c1)N1CCC(=C2c3ccc(Cl)cc3CCc3cc(F)cnc32)CC1 next
Result: ~5.00
